# reported % displacement; entries follow
Molecular target: T1, Nluc-IL23R fusion protein (human, UniProt Q5VWK5 22-629)
T1 construct: range 22-629; Stably expressed in HEK293 cells; also called hIL-23R; human IL-23R; not shown: Nanoluc protein (N1371, Promega) at the N-terminus, after a secretion signal
T1 sequence (looked up): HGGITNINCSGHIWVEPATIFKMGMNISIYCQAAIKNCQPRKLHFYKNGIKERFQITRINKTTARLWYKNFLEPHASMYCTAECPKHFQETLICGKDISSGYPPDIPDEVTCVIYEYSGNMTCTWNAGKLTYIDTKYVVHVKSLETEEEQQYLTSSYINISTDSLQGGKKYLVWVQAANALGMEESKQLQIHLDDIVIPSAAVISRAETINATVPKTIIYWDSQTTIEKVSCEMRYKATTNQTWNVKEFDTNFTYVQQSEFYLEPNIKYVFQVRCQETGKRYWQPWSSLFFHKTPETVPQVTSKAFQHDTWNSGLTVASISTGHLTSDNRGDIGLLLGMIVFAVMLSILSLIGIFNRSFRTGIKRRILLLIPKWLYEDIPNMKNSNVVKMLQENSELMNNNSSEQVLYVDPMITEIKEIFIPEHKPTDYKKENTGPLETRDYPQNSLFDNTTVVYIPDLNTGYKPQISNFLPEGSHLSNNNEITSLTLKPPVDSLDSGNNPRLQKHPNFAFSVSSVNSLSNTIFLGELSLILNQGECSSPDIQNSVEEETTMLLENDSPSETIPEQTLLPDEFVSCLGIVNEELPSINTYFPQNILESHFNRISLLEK
Assay: BRET competition vs TAMRA-labelled peptide, Nluc-IL23R membranes
*1 amine or outer side, *2 acyl side, *3 side chain or, on linkers, in order; H or OH if unused. Bridges are numbered along the chain shown (N, C = ends). [ ]: non-standard residue; d: D form. The star is where a group is joined. γDab = iso-Dab: Dab joined to preceding residue by its side-chain amine, O=C([C@H](CCN[*:1])N[*:3])[*:2]; Propanoyl(3-(3-pyridyl)) = O=C(CCc1cccnc1)*; Phe(4-Me) = Cc1ccc(C[C@H](N)C(=O)O)cc1; 2Nal = N[C@@H](Cc1ccc2ccccc2c1)C(=O)O; AEF = NCCOc1ccc(C[C@H](N)C(=O)O)cc1; 3Pal = N[C@@H](Cc1cccnc1)C(=O)O; αMeL = CC(C)C[C@](C)(N)C(=O)O; Orn = NCCC[C@H](N)C(=O)O; Dab = NCC[C@H](N)C(=O)O
Kindly provide the numeric value in % only, without the unit symbol.

Please review the following examples before continuing.
ETWQE[AEF][2Nal][αMeL][Orn][Dab][3Pal]-NHMe (lactam 1-9, N-5) [Compound 40] :: 100
KTVWQE[Phe(4-Me)][2Nal][αMeL][γDab](Propanoyl(3-(3-pyridyl))) (lactam 1-C, N-6; also: iso-Dab joined to preceding residue via its side-chain amine) [Compound 24] :: 96

Please turn your attention to the following entry.
[ask] Value lookup for % displacement; key = XQTWQCXWXENG ([Ac]-[Abu](16i)QTWQC(16i)[Y(2-aminoethoxy)]W[2-Me-Lys]ENG-[NH2]; (16i) [2,7] thioether bridge (Abu and Cys form a cystathionine)) [Compound C]
[reply] 102
